# tested.target: p97 ATPase WT (Homo sapiens (Human), UniProt P55072)
# Sequence (P55072 whole entry): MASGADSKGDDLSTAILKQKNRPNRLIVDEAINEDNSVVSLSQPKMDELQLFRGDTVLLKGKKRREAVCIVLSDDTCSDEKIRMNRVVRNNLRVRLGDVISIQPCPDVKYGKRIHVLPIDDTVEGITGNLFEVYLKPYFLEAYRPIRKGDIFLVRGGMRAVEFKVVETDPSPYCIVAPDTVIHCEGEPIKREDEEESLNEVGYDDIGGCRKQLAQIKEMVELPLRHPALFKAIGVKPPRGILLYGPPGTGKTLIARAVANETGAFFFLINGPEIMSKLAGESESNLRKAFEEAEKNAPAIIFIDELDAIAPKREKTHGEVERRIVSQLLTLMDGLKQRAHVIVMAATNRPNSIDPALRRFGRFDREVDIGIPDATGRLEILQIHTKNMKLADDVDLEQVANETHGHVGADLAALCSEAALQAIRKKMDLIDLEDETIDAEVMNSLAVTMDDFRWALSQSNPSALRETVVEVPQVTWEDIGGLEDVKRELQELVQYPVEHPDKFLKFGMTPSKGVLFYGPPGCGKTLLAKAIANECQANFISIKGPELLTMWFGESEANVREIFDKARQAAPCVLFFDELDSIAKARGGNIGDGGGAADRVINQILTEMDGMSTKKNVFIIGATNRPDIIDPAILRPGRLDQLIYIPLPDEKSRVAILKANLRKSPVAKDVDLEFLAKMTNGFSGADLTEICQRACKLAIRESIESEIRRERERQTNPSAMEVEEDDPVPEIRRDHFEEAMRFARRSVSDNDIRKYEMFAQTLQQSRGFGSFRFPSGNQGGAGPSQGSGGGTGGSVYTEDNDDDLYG
# test.details: p97 ADP-Glo assay
# Assay type: biochemical
# stated.conditions: Table 3; read-out: ADPGlo IC50
pIC50: −log10 of the molar value.
Response key: Yes means pIC50 >= 6; No means pIC50 < 6.

**Q:** Evaluate CC(C)N1CCC(NC2CCN(c3cccc(-c4cc5cc(C#N)ccc5[nH]4)c3)CC2)CC1 [drawing 239] : pIC50 at minimum 6?
**A:** No

**Q:** Is the recorded value of pIC50 equal to or greater than 6 for this compound? N#Cc1ccc2[nH]c(-c3cccc(N4CCC(NCc5cccc(N=[N+]=[N-])c5)CC4)c3)cc2c1
**A:** Yes

**Q:** Check this compound for pIC50 at or above 6: CC(C)N1CCN(C2CCN(c3cccc(-c4cc5cc(F)ccc5[nH]4)c3)CC2)CC1
**A:** No

**Q:** Given CC(C)N1CCN(CCNC2CCN(c3ccc(F)c(-c4cc5ccccc5[nH]4)c3)CC2)CC1 , state whether its pIC50 is at least 6.
**A:** Yes

**Q:** Check this compound for pIC50 at or above 6: CN(C)CCNC1CCN(c2cccc(-c3cc4cc(C#N)ccc4[nH]3)c2)CC1
**A:** Yes

**Q:** Say whether CC(C)N1CCN(CCNC2CCN(c3cccc(-c4cc5cc(C(N)=O)ccc5[nH]4)c3)CC2)CC1 shows pIC50 of 6 or more.
**A:** Yes

**Q:** Could you please find out whether Cn1ncnc1CCNC1CCN(c2cccc(-c3cc4cc(F)c(F)cc4[nH]3)c2)CC1 has pIC50 that meets 6 or exceeds it?
**A:** No

**Q:** Please check the record CC(C)N1CCN(CCNC2CCN(c3cccc(-c4cc5cc(F)c(F)cc5[nH]4)c3)CC2)CC1 and state if its pIC50 is at or above 6.
**A:** Yes

====

# tested.target: UniProt:P55072
# test.details: p97 ADP-Glo assay
# Type: biochemical
# stated.conditions: Table 3; read-out: ADPGlo IC50
pIC50: −log10 of the molar value.
# cutoff 6 applies to pIC50; >= gives condition met, < gives condition not met

**Q:** Quick check: does CC(C)N1CCN(C(=O)CCNC2CCN(c3cccc(-c4cc5cc(C#N)ccc5[nH]4)c3)CC2)CC1 have pIC50 greater than or equal to 6?
**A:** condition met

**Q:** Hello, I need to know if Cc1c(-c2cc3ccccc3[nH]2)cccc1N1CCC(NC2CCN(C)CC2)CC1 has measured pIC50 not below 6. Thanks!
**A:** condition not met

**Q:** Textbook exercise: given the entry CC(C)N1CCN(C2(CNC3CCN(c4cccc(-c5cc6cc(C#N)ccc6[nH]5)c4)CC3)CCC2)CC1 , state whether its pIC50 is greater than or equal to 6.
**A:** condition met

**Q:** Could you verify whether the entry Cc1ccc(N2CCC(NCCN3CCN(C(C)C)CC3)CC2)cc1-c1cc2cc(C#N)ccc2[nH]1 shows pIC50 of no less than 6?
**A:** condition met

**Q:** Would you say CC(C)N1CCC(NC2CCN(c3cccc(-c4cc5cc(Cl)ccc5[nH]4)c3)CC2)CC1 shows pIC50 at minimum 6?
**A:** condition met

**Q:** Given the entry FC(F)(F)C(c1ccccc1)N1CCN(CCNC2CCN(c3cccc(-c4cc5ccccc5[nH]4)c3)CC2)CC1 (stereo not shown) , answer whether its pIC50 meets or surpasses 6.
**A:** condition not met

**Q:** Entry Fc1ccc2[nH]c(-c3cccc(N4CCC(NCc5cccnc5)CC4)c3)cc2c1 : is its pIC50 no less than 6?
**A:** condition met

**Q:** Textbook exercise: given the entry CC(C)N1CCN(CCNC2CCN(C(=O)c3cccc(-c4cc5ccccc5[nH]4)c3)CC2)CC1 , state whether its pIC50 is greater than or equal to 6.
**A:** condition not met

**Q:** In plain terms: is recorded pIC50 at least 6 for CC(C)N1CCC(NC2CCN(c3nnc(-c4cc5cc(F)ccc5[nH]4)o3)CC2)CC1 ?
**A:** condition not met

**Q:** Does pIC50 meet or surpass 6 for CN1CCN(CC2(NC3CCN(c4cccc(-c5cc6ccccc6[nH]5)c4)CC3)CC2)CC1 ?
**A:** condition met

**Q:** Please indicate if the recorded pIC50 for CC(C)N1CCN(CCNC(=O)C=C2CCN(c3cccc(-c4cc5ccccc5[nH]4)c3)CC2)CC1 meets or exceeds 6.
**A:** condition not met

**Q:** Given the entry Cc1ccc(N2CCC(NCCN3CCN(C(C)C)CC3)CC2)cc1-c1cc2ccccc2[nH]1 , answer whether its pIC50 meets or surpasses 6.
**A:** condition met

**Q:** Is the recorded value of pIC50 equal to or greater than 6 for this compound? CC(C)N1CCN(CCNC2CCN(c3cccc(-c4ccc5ccccc5c4)c3)CC2)CC1
**A:** condition not met

**Q:** Evaluate CN1CCC(NC2CCN(c3cccc(-c4cc5cc(C#N)ccc5[nH]4)c3)CC2)CC1 : pIC50 at minimum 6?
**A:** condition met

**Q:** Entry CC(C)N1CCN(CCNC2CCN(c3cccc(-c4cc5cc(C#N)ccc5[nH]4)c3)CC2)CC1 : is its pIC50 no less than 6?
**A:** condition met

**Q:** Evaluate CC(C)N1CCN(CCNC2CCN(c3cccc(-c4cc5ccccc5[nH]4)c3)CC2)C(=O)C1 : pIC50 at minimum 6?
**A:** condition not met
